experiment summary: Area under curve was determined at a dose of 200 mg/kg (i.p.) in Mice
Type: ADME, organism-based
Set-up: dose 200 mg/kg, route intraperitoneal
condition info: mouse, in vivo, ip
Labelling field: enter criterion met if recorded AUC is less than 4 µM·h. Enter criterion not met if it equals or exceeds that cut-off.

Reference set, count: 3
{"compound": "CSc1ccc(C2=C(c3ccc(C(F)(F)F)cc3)C(=O)N3CCCC3C2)cc1 (stereo not given)", "label value": "criterion not met"}
{"compound": "COc1ccc(C2=C(c3ccc(SC)cc3)CC3CCCN3C2=O)cc1OC (stereo not given)", "label value": "criterion not met"}
{"compound": "CSc1ccc(C2=C(c3ccc(SC)cc3)C(=O)N3CCCC3C2)cc1 (stereo not given)", "label value": "criterion met"}

Take the compound CSc1ccc(C2=C(c3ccc(F)cc3)C(=O)N3CCCC3C2)cc1 (stereo not given) and say whether its AUC is less than 4 µM·h. criterion met

Take the compound CSc1ccc(C2=C(c3ccc(C)cc3)C(=O)N3CCCC3C2)cc1 (stereo not given) and say whether its AUC is less than 4 µM·h. criterion not met

---

experiment summary: Cmax value was determined at a dose of 200 mg/kg (i.p.) in Mice
Assay type: ADME, organism-based
Set-up: dose 200 mg/kg, route intraperitoneal
condition info: mouse, in vivo, ip
measured endpoint: log10 Cmax (log10 of the value in µM)
Values reflect log10 of reported Cmax (µM).

Answered examples (4):
{"compound": "CSc1ccc(C2=C(c3ccc(C)cc3)C(=O)N3CCCC3C2)cc1 (stereo not given)", "log10 Cmax": 0.90}
{"compound": "CSc1ccc(C2=C(c3ccc(F)cc3)C(=O)N3CCCC3C2)cc1 (stereo not given)", "log10 Cmax": 0.00}
{"compound": "CSc1ccc(C2=C(c3ccc(C(F)(F)F)cc3)C(=O)N3CCCC3C2)cc1 (stereo not given)", "log10 Cmax": 0.58}
{"compound": "COc1ccc(C2=C(c3ccc(SC)cc3)CC3CCCN3C2=O)cc1OC (stereo not given)", "log10 Cmax": 1.36}

Shifting focus to the compound that follows.
Form field: reported log10 Cmax of CSc1ccc(C2=C(c3ccc(SC)cc3)C(=O)N3CCCC3C2)cc1 (stereo not given) -0.07

---

experiment summary: Cmax value was determined at a dose of 100 mg/kg (i.p.) in Mice
Type: ADME, organism-based
Design: dose 100 mg/kg, route intraperitoneal
condition info: mouse, in vivo, ip
measured endpoint: Cmax (µM)
Output spec: scalar in µM, unitless text.

Form field: reported Cmax of CSc1ccc(C2=C(c3ccc(F)c(F)c3)C(=O)N3CCCC3C2)cc1 (stereo unspecified) 3.61

---

System: NCI-H522
experiment summary: In vitro cytotoxic activity tested against human lung cancer (H-522) cell line
measured endpoint: GI50 (µM)
Output spec: scalar in µM, unitless text.

{"molecule": "COc1ccc(C2=C(c3ccc(SC)cc3)CC3CCCN3C2=O)cc1C (centres undefined)", "GI50 (µM)": 0.1}
{"molecule": "CSc1ccc(C2=C(c3ccc(Br)cc3)C(=O)N3CCCC3C2)cc1 (centres undefined)", "GI50 (µM)": 7}
{"molecule": "CSc1ccc(C2=C(c3ccc(OCC4CO4)cc3)C(=O)N3CCCC3C2)cc1 (centres undefined)", "GI50 (µM)": 0.03}
{"molecule": "COc1ccc(C2=C(c3ccc(SC)cc3)CC3CCCN3C2=O)cc1Br (centres undefined)", "GI50 (µM)": 0.7}
{"molecule": "CSc1ccc(C2=C(c3ccc(O)c(O)c3)C(=O)N3CCCC3C2)cc1 (centres undefined)", "GI50 (µM)": 60}

Could you share what GI50 was measured for COc1ccc(C2=C(c3ccc(SC)cc3)CC3CCCN3C2=O)cc1OC(=O)CNC(=O)OC(C)(C)C (centres undefined) , tested on NCI-H522? 7

Could you share what GI50 was measured for CSc1ccc(C2=C(c3ccc(OCCN4CCOCC4)cc3)C(=O)N3CCCC3C2)cc1 (centres undefined) , tested on NCI-H522? 7

Could you share what GI50 was measured for CSc1ccc(C2=C(c3ccc(F)c(C)c3)C(=O)N3CCCC3C2)cc1 (centres undefined) , tested on NCI-H522? 0.5

Could you share what GI50 was measured for COc1ccc(C2=C(c3ccc(SC)cc3)CC3CCCN3C2=O)cc1O (centres undefined) , tested on NCI-H522? 6

Could you share what GI50 was measured for COc1ccc(C2=C(c3ccc(SC)cc3)CC3CCCN3C2=O)cc1OC(=O)C1CCCN1C(=O)OC(C)(C)C (centres undefined) , tested on NCI-H522? 5

Could you share what GI50 was measured for COc1ccc(C2=C(c3ccc(SC)cc3)CC3CCCN3C2=O)cc1OC (centres undefined) , tested on NCI-H522? 2

Could you share what GI50 was measured for CSc1ccc(C2=C(c3ccc(C)c(C)c3)C(=O)N3CCCC3C2)cc1 (centres undefined) , tested on NCI-H522? 0.3

---

Test system: NCI-H522
experiment summary: In vitro cytotoxic activity tested against human lung cancer (H-522) cell line
measured endpoint: log10 of GI50 (log10 of the value in nM)
Values reflect log10 of reported GI50 (nM).

Answered examples (6):
{"molecule": "COc1ccc(C2=C(c3ccc(SC)cc3)CC3CCCN3C2=O)cc1 (stereo not given)", "log10 of GI50": 2.90}
{"molecule": "CSc1ccc(C2=C(c3ccc(SC)cc3)C(=O)N3CCCC3C2)cc1 (stereo not given)", "log10 of GI50": 4.18}
{"molecule": "COc1ccc(/C=C\\c2cc(OC)c(OC)c(OC)c2)cc1O", "log10 of GI50": 0.85}
{"molecule": "COc1cc(C2=C(c3ccc(SC)cc3)CC3CCCN3C2=O)ccc1O (stereo not given)", "log10 of GI50": 3.85}
{"molecule": "CSc1ccc(C2=C(c3ccc(C)cc3)C(=O)N3CCCC3C2)cc1 (stereo not given)", "log10 of GI50": 2.95}
{"molecule": "CSc1ccc(C2=C(c3ccc(F)cc3)C(=O)N3CCCC3C2)cc1 (stereo not given)", "log10 of GI50": 2.40}

Could you share what log10 of GI50 was measured for CSc1ccc(C2=C(c3ccc(F)c(F)c3)C(=O)N3CCCC3C2)cc1 (stereo not given) , tested on NCI-H522? 2.30

---

experiment summary: Half life beta(2,4,6,8h) value was determined at a dose of 200 mg/kg (i.p.) in Mice
Format: ADME, organism-based
Design: dose 200 mg/kg, route intraperitoneal
condition info: mouse, in vivo, ip, read-out: T1/2 beta (converted)
measured endpoint: half-life (h)
Output spec: scalar in h, unitless text.

{"compound": "CSc1ccc(C2=C(c3ccc(F)cc3)C(=O)N3CCCC3C2)cc1 (centres undefined)", "unit descriptor": "h", "half-life": 2.59}
{"compound": "COc1ccc(C2=C(c3ccc(SC)cc3)CC3CCCN3C2=O)cc1OC (centres undefined)", "unit descriptor": "h", "half-life": 7.29}
{"compound": "CSc1ccc(C2=C(c3ccc(C(F)(F)F)cc3)C(=O)N3CCCC3C2)cc1 (centres undefined)", "unit descriptor": "h", "half-life": 2.66}

Form field: reported half-life of CSc1ccc(C2=C(c3ccc(C)cc3)C(=O)N3CCCC3C2)cc1 (centres undefined) 6.24

---

Recorded GI50, one value per entry.
System: NCI-H522
experiment summary: In vitro cytotoxic activity tested against human lung cancer (H-522) cell line

Form field: reported GI50 of COc1ccc(C2=C(c3ccc(OC)c(OC)c3)CN3CCCC3C2)cc1OC (stereo not drawn) > 100 µM

Form field: reported GI50 of COc1ccc(C2=C(c3cc(OC)c(OC)c(OC)c3)CC3CCCN3C2=O)cc1O (stereo not drawn) > 100 µM

Form field: reported GI50 of COc1ccc(C2=C(c3ccc(OC)c(OC)c3)C(=O)N3CCCC3C2)cc1OC (stereo not drawn) > 100 µM
